Hey, just so you know, these numbers are from patent US7015215B2.

# System: HCT-15
# Test details: NCI SRB cytotoxicity, Colon HCT-15
# Type: cell-based, human
# Measurement setup: HCT-15, Colon, 48 h
So I've got a bunch of molecules here, and I need their Log GI 50 values.
Answer format: numeric, mol/L implied, no suffix.

# input # query: Log GI 50 of entry COc1cc2c(cc1OCCN1CCN(CCOc3cc4c(cc3OC)C(=O)N3CCC[C@H]3C=N4)CC1)N=C[C@@H]1CCCN1C2=O
# output −4.39

# input Here is the next molecule: COc1cc2c(cc1OCCCCN1CCN(CCCCOc3cc4c(cc3OC)C(=O)N3CCC[C@H]3C=N4)CC1)N=C[C@@H]1CCCN1C2=O
# output −7.92

# input Here is the next molecule: COc1cc2c(cc1OCCCCCN1CCN(CCCCCOc3cc4c(cc3OC)C(=O)N3CCC[C@H]3C=N4)CC1)N=C[C@@H]1CCCN1C2=O
# output −4.25

# input Here is the next molecule: COc1cc2c(cc1OCCCN1CCN(CCCOc3cc4c(cc3OC)C(=O)N3CCC[C@H]3C=N4)CC1)N=C[C@@H]1CCCN1C2=O
# output −4.25

---

# Test system: human tumor cell lines
# Test details: NCI in vitro cytotoxicity SRB assay, mean graph midpoints over the panel
# Type: cell-based
# Measurement setup: 48 h continuous exposure
So I've got a bunch of compounds here, and I need their Log10 GI50 mean graph midpoint (MG_MID) values.
Lab note: jot down the number only; don't add units.

# input # query: Log10 GI50 mean graph midpoint (MG_MID) of entry COc1cc2c(cc1OCCCCCN1CCN(CCCCCOc3cc4c(cc3OC)C(=O)N3CCC[C@H]3C=N4)CC1)N=C[C@@H]1CCCN1C2=O
# output −5.14

# input Here is the next compound: COc1cc2c(cc1OCCCN1CCN(CCCOc3cc4c(cc3OC)C(=O)N3CCC[C@H]3C=N4)CC1)N=C[C@@H]1CCCN1C2=O
# output −5.19

# input Here is the next compound: COc1cc2c(cc1OCCN1CCN(CCOc3cc4c(cc3OC)C(=O)N3CCC[C@H]3C=N4)CC1)N=C[C@@H]1CCCN1C2=O
# output −4.69

# input Here is the next compound: COc1cc2c(cc1OCCCCN1CCN(CCCCOc3cc4c(cc3OC)C(=O)N3CCC[C@H]3C=N4)CC1)N=C[C@@H]1CCCN1C2=O
# output −7.70

---

# Test system: K-62
# Test details: NCI SRB cytotoxicity, Leukemia K-62
# Type: cell-based, human
# Measurement setup: K-62, Leukemia, 48 h
So I've got a bunch of molecules here, and I need their Log LC 50 values.
# include the unit after the value

# input # query: Log LC 50 of entry COc1cc2c(cc1OCCN1CCN(CCOc3cc4c(cc3OC)C(=O)N3CCC[C@H]3C=N4)CC1)N=C[C@@H]1CCCN1C2=O [Compound VIa]
# output −4.00 mol/L

# input Here is the next molecule: COc1cc2c(cc1OCCCCCN1CCN(CCCCCOc3cc4c(cc3OC)C(=O)N3CCC[C@H]3C=N4)CC1)N=C[C@@H]1CCCN1C2=O [Compound VId]
# output −4.20 mol/L

# input Here is the next molecule: COc1cc2c(cc1OCCCCN1CCN(CCCCOc3cc4c(cc3OC)C(=O)N3CCC[C@H]3C=N4)CC1)N=C[C@@H]1CCCN1C2=O [Compound VIc]
# output −4.00 mol/L

# input Here is the next molecule: COc1cc2c(cc1OCCCN1CCN(CCCOc3cc4c(cc3OC)C(=O)N3CCC[C@H]3C=N4)CC1)N=C[C@@H]1CCCN1C2=O [Compound VIb]
# output −4.00 mol/L

---

So I've got a bunch of compounds here, and I need their Log GI 50 values.
# Test system: BT-549
# Test details: NCI SRB cytotoxicity, Breast BT-549
# Format: cell-based, human
# Measurement setup: BT-549, Breast, 48 h

# input API: value(readout=Log GI 50, system=BT-549) for record COc1cc2c(cc1OCCCCN1CCN(CCCCOc3cc4c(cc3OC)C(=O)N3CCC[C@H]3C=N4)CC1)N=C[C@@H]1CCCN1C2=O [Compound VIc]
# output −7.68 mol/L

# input Here is the next compound: COc1cc2c(cc1OCCN1CCN(CCOc3cc4c(cc3OC)C(=O)N3CCC[C@H]3C=N4)CC1)N=C[C@@H]1CCCN1C2=O [Compound VIa]
# output −4.56 mol/L

# input Here is the next compound: COc1cc2c(cc1OCCCCCN1CCN(CCCCCOc3cc4c(cc3OC)C(=O)N3CCC[C@H]3C=N4)CC1)N=C[C@@H]1CCCN1C2=O [Compound VId]
# output −5.31 mol/L

# input Here is the next compound: COc1cc2c(cc1OCCCN1CCN(CCCOc3cc4c(cc3OC)C(=O)N3CCC[C@H]3C=N4)CC1)N=C[C@@H]1CCCN1C2=O [Compound VIb]
# output −5.77 mol/L

---

So I've got a bunch of compounds here, and I need their Log LC 50 values.
# System: HCT-15
# Test details: NCI SRB cytotoxicity, Colon HCT-15
# Format: cell-based, human
# Measurement setup: HCT-15, Colon, 48 h
Answer format: numeric, mol/L implied, no suffix.

# input # query: Log LC 50 of entry COc1cc2c(cc1OCCCN1CCN(CCCOc3cc4c(cc3OC)C(=O)N3CCC[C@H]3C=N4)CC1)N=C[C@@H]1CCCN1C2=O
# output −4.00

# input Here is the next compound: COc1cc2c(cc1OCCCCCN1CCN(CCCCCOc3cc4c(cc3OC)C(=O)N3CCC[C@H]3C=N4)CC1)N=C[C@@H]1CCCN1C2=O
# output −4.00

# input Here is the next compound: COc1cc2c(cc1OCCCCN1CCN(CCCCOc3cc4c(cc3OC)C(=O)N3CCC[C@H]3C=N4)CC1)N=C[C@@H]1CCCN1C2=O
# output −6.37

# input Here is the next compound: COc1cc2c(cc1OCCN1CCN(CCOc3cc4c(cc3OC)C(=O)N3CCC[C@H]3C=N4)CC1)N=C[C@@H]1CCCN1C2=O
# output −4.00

---

# System: NCI-H23
# Test details: NCI SRB cytotoxicity, Non-small-cell lung NCI-H23
# Assay type: cell-based, human
# Measurement setup: 48 h
Assay endpoint: Log LC 50

# input # query: Log LC 50 of entry COc1cc2c(cc1OCCCCN1CCN(CCCCOc3cc4c(cc3OC)C(=O)N3CCC[C@H]3C=N4)CC1)N=C[C@@H]1CCCN1C2=O [Compound VIc]
# output −5.59 mol/L

# input Here is the next molecule: COc1cc2c(cc1OCCCN1CCN(CCCOc3cc4c(cc3OC)C(=O)N3CCC[C@H]3C=N4)CC1)N=C[C@@H]1CCCN1C2=O [Compound VIb]
# output −4.00 mol/L

# input Here is the next molecule: COc1cc2c(cc1OCCN1CCN(CCOc3cc4c(cc3OC)C(=O)N3CCC[C@H]3C=N4)CC1)N=C[C@@H]1CCCN1C2=O [Compound VIa]
# output −4.00 mol/L

# input Here is the next molecule: COc1cc2c(cc1OCCCCCN1CCN(CCCCCOc3cc4c(cc3OC)C(=O)N3CCC[C@H]3C=N4)CC1)N=C[C@@H]1CCCN1C2=O [Compound VId]
# output −4.00 mol/L

---

# System: CAKI-1
# Test details: NCI SRB cytotoxicity, Renal CAKI-1
# Type: cell-based, human
# Measurement setup: CAKI-1, Renal, 48 h
So I've got a bunch of compounds here, and I need their Log LC 50 values.
Answer format: numeric, mol/L implied, no suffix.

# input # query: Log LC 50 of entry COc1cc2c(cc1OCCCN1CCN(CCCOc3cc4c(cc3OC)C(=O)N3CCC[C@H]3C=N4)CC1)N=C[C@@H]1CCCN1C2=O
# output −4.00

# input Here is the next compound: COc1cc2c(cc1OCCCCN1CCN(CCCCOc3cc4c(cc3OC)C(=O)N3CCC[C@H]3C=N4)CC1)N=C[C@@H]1CCCN1C2=O
# output −4.28

# input Here is the next compound: COc1cc2c(cc1OCCN1CCN(CCOc3cc4c(cc3OC)C(=O)N3CCC[C@H]3C=N4)CC1)N=C[C@@H]1CCCN1C2=O
# output −4.00

# input Here is the next compound: COc1cc2c(cc1OCCCCCN1CCN(CCCCCOc3cc4c(cc3OC)C(=O)N3CCC[C@H]3C=N4)CC1)N=C[C@@H]1CCCN1C2=O
# output −4.00

---

So I've got a bunch of compounds here, and I need their Log LC 50 values.
# Tested on: UACC-62
# Test details: NCI SRB cytotoxicity, Melanoma UACC-62
# Assay type: cell-based, human
# Measurement setup: UACC-62, Melanoma, 48 h
Answer format: numeric, mol/L implied, no suffix.

# input # query: Log LC 50 of entry COc1cc2c(cc1OCCCCCN1CCN(CCCCCOc3cc4c(cc3OC)C(=O)N3CCC[C@H]3C=N4)CC1)N=C[C@@H]1CCCN1C2=O
# output −4.00

# input Here is the next compound: COc1cc2c(cc1OCCCN1CCN(CCCOc3cc4c(cc3OC)C(=O)N3CCC[C@H]3C=N4)CC1)N=C[C@@H]1CCCN1C2=O
# output −4.00

# input Here is the next compound: COc1cc2c(cc1OCCN1CCN(CCOc3cc4c(cc3OC)C(=O)N3CCC[C@H]3C=N4)CC1)N=C[C@@H]1CCCN1C2=O
# output −4.00

# input Here is the next compound: COc1cc2c(cc1OCCCCN1CCN(CCCCOc3cc4c(cc3OC)C(=O)N3CCC[C@H]3C=N4)CC1)N=C[C@@H]1CCCN1C2=O
# output −7.35
